molecular target: T1, human VEGFA165 (human, UniProt P15692-4 27-191); experiment: ELISA, coated human VEGFA165, anti-His detection
T1 construct: Bought protein from two suppliers, treated as one molecule; the supplier is named under assay; also called antigen VEGFA
T1 sequence (P15692 other isoform, or with tags, fused parts or gaps limits assumed): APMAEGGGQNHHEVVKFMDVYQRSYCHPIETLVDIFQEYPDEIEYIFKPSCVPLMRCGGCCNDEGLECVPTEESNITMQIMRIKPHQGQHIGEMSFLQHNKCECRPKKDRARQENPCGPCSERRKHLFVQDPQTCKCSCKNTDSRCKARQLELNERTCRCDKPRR
MEASUREMENT_NAME: EC50 (pM)
Respond with the bare value in pM.

Enquiry: # get_value(readout='EC50', item= V15-V30 (bispecific antibody) QLQLVESGGGSVQPGGSLRLSCEVSGRTFASYTMGWFRQAPGKEREFVVAISKGGYKYDSVSLEARFTISKDNTKNTVYLQMNSLKPEDTAVYYCAGTRAYGSSRLRLAETYEYWGQGTQVTVSSGGGGSGGGSQLQLVESGGGSVQPGGSLRLSCEVSGRTFSSYTMGWFRQAPGKGREFVVAISKGGYKYDAVSLEARFTISKDNTKNTVYLQMNSLKPEDTAVYYCAATRAYGSSRLRLAKTYEYWGQGTQVTVSS )
Return: 410

Enquiry: What do we get for V15-V40 (bispecific antibody) QLQLVESGGGSVQPGGSLRLSCEVSGRTFASYTMGWFRQAPGKEREFVVAISKGGYKYDSVSLEARFTISKDNTKNTVYLQMNSLKPEDTAVYYCAGTRAYGSSRLRLAETYEYWGQGTQVTVSSGGGGSGGGSQLQLVESGGGSVQPGGSLRLSCEVSGRTFTSYTMGWFRQAPGKEREFVVAISKGGYKYNAVSLEARFTISKDNTKNTVYLQMNSLKPEDTAVYYCAATRAYGSSRLRLAKTYEYWGQGTQVTVSS ?
Return: 260

Enquiry: What do we get for V30-V40 (bispecific antibody) QLQLVESGGGSVQPGGSLRLSCEVSGRTFSSYTMGWFRQAPGKGREFVVAISKGGYKYDAVSLEARFTISKDNTKNTVYLQMNSLKPEDTAVYYCAATRAYGSSRLRLAKTYEYWGQGTQVTVSSGGGGSGGGSQLQLVESGGGSVQPGGSLRLSCEVSGRTFTSYTMGWFRQAPGKEREFVVAISKGGYKYNAVSLEARFTISKDNTKNTVYLQMNSLKPEDTAVYYCAATRAYGSSRLRLAKTYEYWGQGTQVTVSS ?
Return: 310

Hey, just so you know, these numbers are from patent US20260234232A1.
